- Test system: NCI-H1395
- METHOD: relative viability (nuclei count vs DMSO), 5 days (fraction); higher = more cells survive
- EXPERIMENTAL_SETUP: first compound 0.01581 µM
PROPERTY_LABEL: relative viability
API doc: respond with a numeric literal and nothing else, no unit.

- MOLECULE: "CC1(C)CCC(c2ccc(Cl)cc2)=C(CN2CCN(c3ccc(C(=O)NS(=O)(=O)c4ccc(N[C@H](CCN5CCOCC5)CSc5ccccc5)c(S(=O)(=O)C(F)(F)F)c4)cc3)CC2)C1 [Navitoclax] + CS(=O)(=O)N1CCN(Cc2cc3nc(-c4cccc5[nH]ncc45)nc(N4CCOCC4)c3s2)CC1 [Pictilisib] (partner 1 µM)"
  TESTED_SYSTEM: "NCI-H1395"
  READOUT_NUMBER: 0.645

In the following, a different molecule is considered.
Summary for this molecule, CC1(C)CCC(c2ccc(Cl)cc2)=C(CN2CCN(c3ccc(C(=O)NS(=O)(=O)c4ccc(N[C@H](CCN5CCOCC5)CSc5ccccc5)c(S(=O)(=O)C(F)(F)F)c4)cc3)CC2)C1 [Navitoclax] + CS(=O)(=O)CCNCc1ccc(-c2ccc3ncnc(Nc4ccc(OCc5cccc(F)c5)c(Cl)c4)c3c2)o1 [Lapatinib] (partner 2 µM) : relative viability is 1.18

----------
- Test system: NCI-H2228
- METHOD: relative viability (nuclei count vs DMSO), 5 days (fraction); higher = more cells survive
- EXPERIMENTAL_SETUP: first compound 0.253 µM
Listing: relative viability of selected compounds
API doc: respond with a numeric literal and nothing else, no unit.

Reference set (2 entries):
- COMPOUND: "Oc1nc(-c2ccc(C(F)(F)F)cc2)nc2c1CSCC2 [XAV939] + CC(=O)Nc1cccc(-n2c(=O)n(C3CC3)c(=O)c3c(Nc4ccc(I)cc4F)n(C)c(=O)c(C)c32)c1 [Trametinib] (partner 0.02 µM)"
  relative viability: 0.488
- COMPOUND: "C=C1C(=O)O[C@@H](CCCCCCCC)[C@@H]1C(=O)O [C-75] + CS(=O)(=O)CCNCc1ccc(-c2ccc3ncnc(Nc4ccc(OCc5cccc(F)c5)c(Cl)c4)c3c2)o1 [Lapatinib] (partner 2 µM)"
  relative viability: 1.19

In the following, a different compound is considered.
Summary for this compound, Oc1nc(-c2ccc(C(F)(F)F)cc2)nc2c1CSCC2 [XAV939] + CS(=O)(=O)CCNCc1ccc(-c2ccc3ncnc(Nc4ccc(OCc5cccc(F)c5)c(Cl)c4)c3c2)o1 [Lapatinib] (partner 2 µM) : relative viability is 0.922

----------
- System: UMC-11
- METHOD: relative viability (nuclei count vs DMSO), 5 days (fraction); higher = more cells survive
- EXPERIMENTAL_SETUP: first compound 0.1581 µM
PROPERTY_LABEL: relative viability
API doc: respond with a numeric literal and nothing else, no unit.

Reference set (3 entries):
- COMPOUND: "CC1(C)CCC(c2ccc(Cl)cc2)=C(CN2CCN(c3ccc(C(=O)NS(=O)(=O)c4ccc(N[C@H](CCN5CCOCC5)CSc5ccccc5)c(S(=O)(=O)C(F)(F)F)c4)cc3)CC2)C1 [Navitoclax] + Cc1nc(Nc2ncc(C(=O)Nc3c(C)cccc3Cl)s2)cc(N2CCN(CCO)CC2)n1 [Dasatinib] (partner 0.075 µM)"
  TESTED_SYSTEM: "UMC-11"
  relative viability: 0.471
- COMPOUND: "CC1(C)CCC(c2ccc(Cl)cc2)=C(CN2CCN(c3ccc(C(=O)NS(=O)(=O)c4ccc(N[C@H](CCN5CCOCC5)CSc5ccccc5)c(S(=O)(=O)C(F)(F)F)c4)cc3)CC2)C1 [Navitoclax] + CS(=O)(=O)CCNCc1ccc(-c2ccc3ncnc(Nc4ccc(OCc5cccc(F)c5)c(Cl)c4)c3c2)o1 [Lapatinib] (partner 2 µM)"
  TESTED_SYSTEM: "UMC-11"
  relative viability: 0.858
- COMPOUND: "CC1(C)CCC(c2ccc(Cl)cc2)=C(CN2CCN(c3ccc(C(=O)NS(=O)(=O)c4ccc(N[C@H](CCN5CCOCC5)CSc5ccccc5)c(S(=O)(=O)C(F)(F)F)c4)cc3)CC2)C1 [Navitoclax] + O=C(CCCCCCC(=O)Nc1ccccc1)NO [Vorinostat] (partner 1 µM)"
  TESTED_SYSTEM: "UMC-11"
  relative viability: 0.312

Measured on UMC-11, CC1(C)CCC(c2ccc(Cl)cc2)=C(CN2CCN(c3ccc(C(=O)NS(=O)(=O)c4ccc(N[C@H](CCN5CCOCC5)CSc5ccccc5)c(S(=O)(=O)C(F)(F)F)c4)cc3)CC2)C1 [Navitoclax] + O=C(c1cc(Cc2n[nH]c(=O)c3ccccc23)ccc1F)N1CCN(C(=O)C2CC2)CC1 [Olaparib] (partner 8 µM) has a documented relative viability of 0.317

----------
- Test system: HCC-78
- METHOD: relative viability (nuclei count vs DMSO), 5 days (fraction); higher = more cells survive
- EXPERIMENTAL_SETUP: first compound 0.1265 µM
Hi! Could you tag entries with relative viability below 0.8 as 1, and those at or above as -1? Much appreciated.

Does the reported relative viability of O=C(O)c1ccc(-c2c[nH]c3ncc(-c4ccccc4)cc23)cc1C1CCCC1 + N=C(N)NC(=N)NCCc1ccccc1 [Phenformin] (partner 250 µM) stay below 0.8?
-1

----------
- System: BEN
- METHOD: relative viability (nuclei count vs DMSO), 5 days (fraction); higher = more cells survive
- EXPERIMENTAL_SETUP: first compound 0.4 µM
Listing: relative viability of selected compounds
API doc: respond with a numeric literal and nothing else, no unit.

- COMPOUND: "O=C(O)c1ccc(-c2c[nH]c3ncc(-c4ccccc4)cc23)cc1C1CCCC1 + CS(=O)(=O)N1CCN(Cc2cc3nc(-c4cccc5[nH]ncc45)nc(N4CCOCC4)c3s2)CC1 [Pictilisib] (partner 1 µM)"
  READOUT_NUMBER: 0.584

Summary for this compound, O=C(O)c1ccc(-c2c[nH]c3ncc(-c4ccccc4)cc23)cc1C1CCCC1 + CC(=O)Nc1cccc(-n2c(=O)n(C3CC3)c(=O)c3c(Nc4ccc(I)cc4F)n(C)c(=O)c(C)c32)c1 [Trametinib] (partner 0.02 µM) : relative viability is 1.08

Summary for this compound, O=C(O)c1ccc(-c2c[nH]c3ncc(-c4ccccc4)cc23)cc1C1CCCC1 + Cc1nc(Nc2ncc(C(=O)Nc3c(C)cccc3Cl)s2)cc(N2CCN(CCO)CC2)n1 [Dasatinib] (partner 0.075 µM) : relative viability is 0.358

Summary for this compound, O=C(O)c1ccc(-c2c[nH]c3ncc(-c4ccccc4)cc23)cc1C1CCCC1 + N=C(N)NC(=N)NCCc1ccccc1 [Phenformin] (partner 250 µM) : relative viability is 0.247

----------
- System: NCI-H661
- METHOD: relative viability (nuclei count vs DMSO), 5 days (fraction); higher = more cells survive
- EXPERIMENTAL_SETUP: first compound 8 µM
Hi! Could you tag entries with relative viability below 0.5 as 1, and those at or above as -1? Much appreciated.

- MOLECULE: "C=C1C(=O)O[C@@H](CCCCCCCC)[C@@H]1C(=O)O [C-75] + O=C(CCCCCCC(=O)Nc1ccccc1)NO [Vorinostat] (partner 1 µM)"
  TESTED_SYSTEM: "NCI-H661"
  CLASS_NAME: -1

Does the reported relative viability of C=C1C(=O)O[C@@H](CCCCCCCC)[C@@H]1C(=O)O [C-75] + C[C@@H](Oc1cc(-c2cnn(C3CCNCC3)c2)cnc1N)c1c(Cl)ccc(F)c1Cl [Crizotinib] (partner 1 µM) stay below 0.5?
-1

Does the reported relative viability of C=C1C(=O)O[C@@H](CCCCCCCC)[C@@H]1C(=O)O [C-75] + CC(=O)Nc1cccc(-n2c(=O)n(C3CC3)c(=O)c3c(Nc4ccc(I)cc4F)n(C)c(=O)c(C)c32)c1 [Trametinib] (partner 0.02 µM) stay below 0.5?
1

Does the reported relative viability of C=C1C(=O)O[C@@H](CCCCCCCC)[C@@H]1C(=O)O [C-75] + Cc1cc(Nc2cc(N3CCN(C)CC3)nc(Sc3ccc(NC(=O)C4CC4)cc3)n2)n[nH]1 [Tozasertib] (partner 0.1 µM) stay below 0.5?
1

Does the reported relative viability of C=C1C(=O)O[C@@H](CCCCCCCC)[C@@H]1C(=O)O [C-75] + Nc1ncn([C@H]2C[C@H](O)[C@@H](CO)O2)c(=O)n1 [Decitabine] (partner 2 µM) stay below 0.5?
1

Does the reported relative viability of C=C1C(=O)O[C@@H](CCCCCCCC)[C@@H]1C(=O)O [C-75] + COc1cccc2cc(-c3nc([C@H]4CC[C@H](C(=O)O)CC4)n4ncnc(N)c34)[nH]c12 [OSI-027] (partner 0.5 µM) stay below 0.5?
-1

Does the reported relative viability of C=C1C(=O)O[C@@H](CCCCCCCC)[C@@H]1C(=O)O [C-75] + CC(C)C[C@H](NC(=O)[C@H](Cc1ccccc1)NC(=O)c1cnccn1)B(O)O [Bortezomib] (partner 0.002 µM) stay below 0.5?
-1
